Listing of recorded # of individuals of 14 with positive BAT test by entry.
System: basophils in whole blood from HDM allergic donors
experiment-summary: Basophil Activation Test (BAT)
Format: cell-based, human
test-context: 1000 ng/ml; blood from HDM allergic individuals (n=14)
The reply should be a number, written without any unit.

The cases that follow already have their # of individuals of 14 with positive BAT test on record.
{"molecule": "Derp2: major house dust mite allergen, group 2, Dermatophagoides pteronyssinus; control (protein, UniProt P49278 18-146, looked up) Mite group 2 allergen Der p 2: DQVDVKDCANHEIKKVLVPGCHGSEPCIIHRGKPFQLEAVFEANQNTKTAKIEIKASIDGLEVDVPGIDPNACHYMKCPLVKGQQYDIKYTWNVPKIAPKSENVVVTVKVMGDDGVLACAIATHAKIRD", "data-value": 13}
{"molecule": "A024: house dust mite protein; SEQ ID NO: 11 (Der f), 12 (Der p), 318 (Blo t) (protein) MSISAHGGGLVNGIAGMENKFTVFTSGKPVSGLTVAFEGPTKPEINFNSTKDGSVDVGYIPKAGGQYKIHIKYEGKEIVGSPFKCNISGDESTHRKLTEKVKVGGPNISTGKVNQDNQLTIDCKEAGITGGISFAMEGPAKVEVSFRNNNDGTITVIYKPPTPGDYKLHLKFNDIHLPGSPYPIVVSA", "data-value": 3}
{"molecule": "A018: house dust mite protein; SEQ ID NO: 5 (Der f), 6 (Der p), 314 (Blo t) (protein) MVKAVVVLKGDPNVSGTIFFEQQDNGPVKVTGSVQGLKPGLHGFHVHEFGDNTNGCTSAGAHYNPLNKTHGAPNDEERHVGDLGNIEANDKGVANVVIEDSLISLTGEKSIVGRSLVVHADPDDLGRGGHELSKTTGNAGGRLVCGVIGVTK", "data-value": 0}
{"molecule": "A019: house dust mite protein; SEQ ID NO: 1 (Der f), 4 (Der p), 315 (Blo t) (protein) QVYCNGAAIVSAARSQIGVPYSWGGGGIHGKSRGIGEGANTVGFDCSGLAQYSVYQGTHKVLARVASGQYSDPKCHHVAYGSHQPGDLVFFGNPIHHVGIVSAHGRMINAPHTGTNVREENIWSDHIANVARCW", "data-value": 4}

# ---- query molecule ----
**Q:** Fill in the blank: the reported # of individuals of 14 with positive BAT test of A017: house dust mite protein; SEQ ID NO: 21 (Der f), 25 (Der p), 313 (Blo t) (protein) MSSSSGKKYDFSGKVALVTGSSSGIGAAIALQFAQYGAQVTITGRDAAALESVAKRIEAESGHQPLQIVGNLLDQSLPAKLIDGTISKYGRLDFLVNNAGFSTQHRDIHDEKLMEAFDQVYGLNVRAVVQLSQLAATHLEKSKGNIINISSNLSMMPVHIIYSSSKAALDMITKTMAMEFGKKGVRVNSINPGPVATQFMRSLGMPVTFLKENEEFVKELTLLKFVAQPVEIANLASFLASDDARNMTGSIVVNDTGSLLAPRVDFKKLDEIKKK is ____.
**A:** 0
